# subjectOfTest: Ubiquitin-activating enzyme e1, putative (Leishmania donovani (strain BPK282A1)) (UniProt E9BSI1)
# Sequence (whole entry): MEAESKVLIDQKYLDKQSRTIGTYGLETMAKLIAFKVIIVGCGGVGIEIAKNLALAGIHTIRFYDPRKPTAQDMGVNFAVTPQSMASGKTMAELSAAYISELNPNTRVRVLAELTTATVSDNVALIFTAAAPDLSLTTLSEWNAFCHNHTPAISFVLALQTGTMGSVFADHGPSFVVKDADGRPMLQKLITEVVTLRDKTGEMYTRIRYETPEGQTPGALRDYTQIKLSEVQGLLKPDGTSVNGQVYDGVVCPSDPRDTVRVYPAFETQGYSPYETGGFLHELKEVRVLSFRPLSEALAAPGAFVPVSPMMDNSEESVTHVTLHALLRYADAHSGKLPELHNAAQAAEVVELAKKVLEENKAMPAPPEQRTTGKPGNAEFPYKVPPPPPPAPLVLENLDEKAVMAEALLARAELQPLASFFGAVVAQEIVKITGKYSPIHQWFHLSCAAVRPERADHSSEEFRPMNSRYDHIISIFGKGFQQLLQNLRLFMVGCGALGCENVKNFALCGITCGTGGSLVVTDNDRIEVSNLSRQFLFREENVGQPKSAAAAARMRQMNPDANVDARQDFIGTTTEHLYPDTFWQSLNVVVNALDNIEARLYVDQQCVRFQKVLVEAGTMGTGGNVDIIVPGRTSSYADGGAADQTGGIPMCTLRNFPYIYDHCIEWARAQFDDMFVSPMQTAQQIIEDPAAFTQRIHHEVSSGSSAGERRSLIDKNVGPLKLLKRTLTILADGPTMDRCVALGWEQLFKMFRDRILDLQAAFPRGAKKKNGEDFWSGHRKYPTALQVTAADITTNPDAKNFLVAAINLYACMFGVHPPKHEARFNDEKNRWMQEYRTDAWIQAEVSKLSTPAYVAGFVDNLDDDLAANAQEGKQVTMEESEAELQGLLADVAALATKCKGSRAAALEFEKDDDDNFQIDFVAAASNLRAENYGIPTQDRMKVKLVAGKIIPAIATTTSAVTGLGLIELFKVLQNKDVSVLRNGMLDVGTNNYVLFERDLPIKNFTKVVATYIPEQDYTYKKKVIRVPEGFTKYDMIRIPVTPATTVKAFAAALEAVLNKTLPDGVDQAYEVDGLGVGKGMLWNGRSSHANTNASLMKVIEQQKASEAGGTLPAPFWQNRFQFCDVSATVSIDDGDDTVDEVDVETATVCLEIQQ
# protocolDetails: Leishmania donovani Ubiquitin Activating Enzyme (LdE1)
# Type: functional
# Parameters: scale not given: direction of the effect not stated beside the values
# details: 30 µM
Entries with a potency or affinity are not part of this list.
Hi there, I'd appreciate the recorded Percent Effect for every entry that follows.
Give a bare numeral; the unit % is implied.

input: Entry under review: Cc1cnn(C2CCCN(C(=O)c3cccc(Cn4ccnc4)c3)C2)c1 (stereo unspecified) . Reported Percent Effect?
output: 13.9

input: Entry under review: CN(C)c1cc(C(=O)NCCc2n[nH]c(=O)[nH]2)ccn1 . Reported Percent Effect?
output: 2.63

input: Entry under review: Cc1cnn(CCNCc2nc(COc3ccc(F)cc3)no2)c1 . Reported Percent Effect?
output: 2.63

input: Entry under review: Cc1nn(C)c(C)c1C1CCCN1C(=O)c1ccc(NC2CC2)nc1 (stereo unspecified) . Reported Percent Effect?
output: 16.2

input: Entry under review: COCC1CN(C(=O)CNC(C)=O)Cc2ncnn2C1 (stereo unspecified) . Reported Percent Effect?
output: 7.79

input: Entry under review: Cc1nn(C)c(N2CCOCC2)c1CNC(C)c1cccnc1 (stereo unspecified) . Reported Percent Effect?
output: 6.94

input: Entry under review: CC(=O)Nc1nc(C2CCN(C(=O)c3cccnc3)CC2)cs1 . Reported Percent Effect?
output: 21.3

input: Entry under review: COc1cc(CNC(=O)Nc2cc(C(F)(F)F)c[nH]c2=O)ccn1 . Reported Percent Effect?
output: 13.2

input: Entry under review: COC(=O)c1ccc(N2CCN(C(=O)c3cc(C)on3)C(C)C2)cc1 (stereo unspecified) . Reported Percent Effect?
output: 12.7

input: Entry under review: O=C(c1ccc[nH]1)N1CCn2cc(CN3CCCC3)nc2C1 . Reported Percent Effect?
output: 0

input: Entry under review: Fc1ccc(CN2CCC(c3n[nH]c4nccnc34)CC2)cc1F . Reported Percent Effect?
output: 9.46

----------
# subjectOfTest: AMP-activated protein kinase, AMPK (Homo sapiens) (UniProt P54646+O43741+P54619+Q9UGJ0+Q9Y478+Q13131+Q9UGI9)
# protocolDetails: AMP-dependent Kinase enzyme assay. An in vitro enzyme assay that detects ADP turnover that is directly proportional to AMPK activity. This uses naive AMPK that is activated during the assay with MK-8722
# Assay type: functional
# Parameters: scale not given: direction of the effect not stated beside the values
# details: 30 µM
Hi there, I'd appreciate the recorded Percent Effect for every entry that follows.
Give a bare numeral; the unit % is implied.

input: Entry under review: Cn1cccc1C(=O)N1CC[C@H]2C[C@@H](c3ccncn3)O[C@@H]2C1 . Reported Percent Effect?
output: 3.37

input: Entry under review: Cc1cc(C)c(CNC(=O)NCC2CCCO2)c(=O)[nH]1 (centres undefined) . Reported Percent Effect?
output: 3.27

input: Entry under review: Cc1ccc(NC2CCN(C(=O)c3ccsc3)CC2)nn1 . Reported Percent Effect?
output: -1.87

input: Entry under review: COC(=O)C(c1cc(F)ccc1F)N(C)C(=O)c1csnn1 (centres undefined) . Reported Percent Effect?
output: 3.37

input: Entry under review: Cc1nn(C)c(Cl)c1C1CCCN1C(=O)c1ccc2c(c1)OCO2 (centres undefined) . Reported Percent Effect?
output: -7.03

input: Entry under review: O=C(CCc1nccs1)N1CCN(c2ncccn2)CC1 . Reported Percent Effect?
output: -1.74

input: Entry under review: COCCN1CCCC(O)(CN2CCN(c3ncccc3C)CC2)C1=O (centres undefined) . Reported Percent Effect?
output: -3.41

input: Entry under review: CCN(Cc1nc2c(cnn2C)c(=O)[nH]1)c1ccc(OC)c(OC)c1 . Reported Percent Effect?
output: 14.9

input: Entry under review: Cc1cnn(Cc2cc(F)ccc2F)c1NC(=O)NC1CC1 . Reported Percent Effect?
output: -4.15

input: Entry under review: Cc1cccc(OCCC(=O)NCC(C)(C)C(N)=O)c1 . Reported Percent Effect?
output: 1.54

input: Entry under review: CCn1cnnc1CNC(=O)N1CCN(Cc2ccccc2)CC1 . Reported Percent Effect?
output: -4.86

input: Entry under review: O=C(CCC1CCCC1)NCCn1nc(C2CCNC2)c2cccnc21 (centres undefined) . Reported Percent Effect?
output: 8.6

input: Entry under review: OCCn1cc(CN2CCN(CCOc3ccccc3F)CC2)cn1 . Reported Percent Effect?
output: 7.1

input: Entry under review: CCc1noc(C2CCCCN2C(=O)c2ccn(C3CCCC3)n2)n1 (centres undefined) . Reported Percent Effect?
output: -10.1

input: Entry under review: O=C1CC2(CCN(CC3CC3)C2)CN1c1cccc(F)c1 (centres undefined) . Reported Percent Effect?
output: -7.34

input: Entry under review: O=C(C1CCC1)N1CCN(C(=O)c2cnccn2)[C@H]2CS(=O)(=O)C[C@H]21 . Reported Percent Effect?
output: -3.89

input: Entry under review: Cc1nc(CN2CCCC(Cn3cc(CCO)nn3)C2)c[nH]1 (centres undefined) . Reported Percent Effect?
output: -4.62

input: Entry under review: O=C(c1cc(=O)n(-c2ccccc2)[nH]1)N1CCCC(c2ccn[nH]2)C1 (centres undefined) . Reported Percent Effect?
output: -16.1

input: Entry under review: CC(C)c1nccn1C1CCCN(C(=O)c2cnn(C)c2C2CC2)C1 (centres undefined) . Reported Percent Effect?
output: -2.81

input: Entry under review: Cc1cccc(C2(C(=O)NCCCn3cccn3)CC2)c1 . Reported Percent Effect?
output: -1.18

input: Entry under review: CC(C)Oc1ncccc1CNC(=O)N1CCC(C(N)=O)C1 (centres undefined) . Reported Percent Effect?
output: -1.63

input: Entry under review: Cc1cc(NC(=O)CN2CCN(c3nccs3)C(C)C2)n(C)n1 (centres undefined) . Reported Percent Effect?
output: -3.28

input: Entry under review: CCn1cnnc1CNc1nc(C)nc2scc(CC(C)C)c12 . Reported Percent Effect?
output: -1.1

input: Entry under review: CCOc1ccc(S(=O)(=O)NCc2cccnc2N(C)C)cc1 . Reported Percent Effect?
output: -9.37

----------
# subjectOfTest: AMP-activated protein kinase, AMPK (Homo sapiens) (UniProt P54646+O43741+P54619+Q9UGJ0+Q9Y478+Q13131+Q9UGI9)
# protocolDetails: AMP-dependent Kinase enzyme assay. An in vitro enzyme assay that detects ADP turnover that is directly proportional to AMPK activity. This uses naive AMPK that is activated during the assay with MK-8722
# Type: functional
# Parameters: scale not given: direction of the effect not stated beside the values
# details: 30 µM
valueKind: Percent Effect (%)
Give a bare numeral; the unit % is implied.

input: Entry under review: O=C(c1cn(-c2ccccc2Cl)nn1)N1CCCSCC1 . Reported Percent Effect?
output: -2.86

input: Entry under review: CN(Cc1ccco1)[C@@H]1CN(C(=O)c2ccnnc2)C[C@@H]2CCCO[C@@H]21 . Reported Percent Effect?
output: -3.12

input: Entry under review: COc1ncccc1NC(=O)N1CCC(CNC(C)=O)CC1 . Reported Percent Effect?
output: -2.93

input: Entry under review: CCn1cc(NC(=O)NCC(C)O)cn1 (centres undefined) . Reported Percent Effect?
output: -8.6

input: Entry under review: CCNC(=O)CN1CCCN(C(=O)C2CCCc3[nH]ncc32)CC1 (centres undefined) . Reported Percent Effect?
output: -2.94

input: Entry under review: CC(C)NC(=O)N1CCc2ncc(CN3CCOCC3)n2CC1 . Reported Percent Effect?
output: 6.6

input: Entry under review: O=S(=O)(c1ccccc1)N1CCN(CCn2ccnc2)CC1 . Reported Percent Effect?
output: -6.09

input: Entry under review: CCOCC(O)CN1CCN(C(=O)CC(C)(C)C)CC1 (centres undefined) . Reported Percent Effect?
output: -10.6

input: Entry under review: COc1cc(CN2CCN(c3cccc(OC)c3)C(=O)C2)cc(OC)c1 . Reported Percent Effect?
output: -1.82

input: Entry under review: CC(c1nc(C2CC2)no1)N1CCN(Cc2ccccc2F)CC1 (centres undefined) . Reported Percent Effect?
output: 3.7

input: Entry under review: c1ccc(-c2cnc(CN3CCCC3Cn3cncn3)o2)cc1 (centres undefined) . Reported Percent Effect?
output: -0.0232

input: Entry under review: COc1cccc(CN(C)C(=O)CN2CC(n3nc(C)cc3C)C2)c1 . Reported Percent Effect?
output: 0.521

input: Entry under review: CN(Cc1ccco1)C[C@H]1OC[C@@H]2CCN(Cc3nccs3)C[C@@H]21 . Reported Percent Effect?
output: -3.04

input: Entry under review: COc1ccc(-c2nnc(SC(C)C(=O)NCC(C)C)[nH]2)c(OC)c1 (centres undefined) . Reported Percent Effect?
output: 2.87

input: Entry under review: CNc1cncc(C2CCCN2Cc2ccccn2)n1 (centres undefined) . Reported Percent Effect?
output: 3.64

input: Entry under review: CC1CCN(C(=O)c2ccn(COc3ccc(F)cc3)n2)CC1 . Reported Percent Effect?
output: -0.0433

input: Entry under review: Cc1nc(CCCNC(=O)C2CC(=O)N(C(C)(C)C)C2)sc1C (centres undefined) . Reported Percent Effect?
output: -0.283

input: Entry under review: COCC(=O)N1CC[C@H]2C[C@H](C)O[C@@H]2C1 . Reported Percent Effect?
output: 4.66

input: Entry under review: CCN1CCN(c2nc(C(C)C)nc3c(C)nn(CC)c23)CC1 . Reported Percent Effect?
output: -2.21

input: Entry under review: Cc1nc(C)n(CC2CN(c3ncccn3)Cc3nccn3C2)n1 (centres undefined) . Reported Percent Effect?
output: -2.43

input: Entry under review: CC(C)NC(=O)[C@@H]1C[C@H](N)CN1C(=O)c1cc2c([nH]c1=O)CCCC2 . Reported Percent Effect?
output: -2.43

input: Entry under review: O=C1NCC2(CCCN(Cc3ccccc3F)C2)Oc2ccccc21 (centres undefined) . Reported Percent Effect?
output: 9.79

input: Entry under review: Cc1nn(C)c2c(N3CCN(C(=O)c4ccccc4)CC3)ncnc12 . Reported Percent Effect?
output: 2.69

input: Entry under review: Cc1nc(CN(C)C2CCN(Cc3ccno3)C2)no1 (centres undefined) . Reported Percent Effect?
output: -53.5
